tested on: MCF10F; assay: -log10 GI50 (growth inhibition 50%) (-log10(M)); higher = more potent growth inhibition
Field: -log10 GI50. Provide a value for each of the compounds that follow.
Numbers only.

Guide cases for -log10 GI50, answers given:
NS(=O)(=O)OC[C@@H]1C[C@@H](n2ccc3c(N[C@H]4CCc5ccccc54)ncnc32)C[C@@H]1O :: 6.2
C/C(=C\c1csc(C)n1)[C@@H]1C[C@@H]2O[C@]2(C)CCC[C@H](C)[C@H](O)[C@@H](C)C(=O)C(C)(C)[C@@H](O)CC(=O)N1 [Ixabepilone] :: 8.08

Requested read-out: -log10 GI50. Entry: "CNC(=O)c1cc(Oc2ccc(NC(=O)Nc3ccc(Cl)c(C(F)(F)F)c3)cc2)ccn1"
4.46

---

system: LY2; test: -log10 GI50 (growth inhibition 50%) (-log10(M)); higher = more potent growth inhibition
Can you tell me -log10 GI50 for the items I'm about to list?

Cc1ccc(NC(=O)c2ccc(CN3CCN(C)CC3)cc2)cc1Nc1nccc(-c2cccnc2)n1 [Imatinib] :: 4.65
CO[C@H]1C[C@@H]2CC[C@@H](C)[C@@](O)(O2)C(=O)C(=O)N2CCCC[C@H]2C(=O)O[C@H]([C@H](C)C[C@@H]2CC[C@@H](OCCO)[C@H](OC)C2)CC(=O)[C@H](C)/C=C(\C)[C@@H](O)[C@@H](OC)C(=O)[C@H](C)C[C@H](C)/C=C/C=C/C=C/1C [Everolimus] :: 7.52
CC/C(=C(\c1ccccc1)c1ccc(OCCN(C)C)cc1)c1ccccc1 [Tamoxifen] :: 4.25
COC(=O)Nc1nc2cc(C(=O)c3ccccc3)ccc2[nH]1 [Mebendazole] :: 6.32
Cn1c(=O)n(-c2ccc(C(C)(C)C#N)cc2)c2c3cc(-c4cnc5ccccc5c4)ccc3ncc21 [BEZ235] :: 6.8

Could you share which -log10 GI50 value was measured for COc1cccc2c1C(=O)c1c(O)c3c(c(O)c1C2=O)C[C@@](O)(C(=O)CO)C[C@@H]3O[C@H]1C[C@H](N)[C@@H](O)[C@H](C)O1 [Epirubicin] ?
6.86

---

test system: SKBR3; assay: -log10 GI50 (growth inhibition 50%) (-log10(M)); higher = more potent growth inhibition
Please note: met applies when -log10 GI50 is 5 or greater, and not met applies otherwise.

Completed entries (count: 3):
Cc1cc(Nc2cc(N3CCN(C)CC3)nc(Sc3ccc(NC(=O)C4CC4)cc3)n2)n[nH]1 :: not met
COc1cc2ncnc(Nc3cccc(Cl)c3)c2cc1OC :: met
CS(=O)(=O)CCNCc1ccc(-c2ccc3ncnc(Nc4ccc(OCc5cccc(F)c5)c(Cl)c4)c3c2)o1 :: met

Is reported -log10 GI50 greater than or equal to 5 here: "CC(=O)O[C@@]12CO[C@@H]1C[C@H](O)[C@@]1(C)C(=O)[C@H](O)C3=C(C)[C@@H](OC(=O)[C@H](O)[C@@H](NC(=O)OC(C)(C)C)c4ccccc4)C[C@@](O)([C@@H](OC(=O)c4ccccc4)[C@H]21)C3(C)C"
met

Ok, now O=S(=O)(CC1CS1)c1ccc(Oc2ccccc2)cc1 (stereo not drawn)
not met

Lookup "O=c1[nH]cc(F)c(=O)[nH]1"
not met

One more compound: "Cn1c(=O)n(-c2ccc(C(C)(C)C#N)cc2)c2c3cc(-c4cnc5ccccc5c4)ccc3ncc21"
not met

---

tested on: MDAMB134VI; assay: -log10 GI50 (growth inhibition 50%) (-log10(M)); higher = more potent growth inhibition
property: -log10 GI50
Answers are plain numbers.

Example cases with answers are listed next.
Oc1cc(-c2nc(-c3ccccc3)[nH]c2-c2ccncc2)ccc1Cl :: 4.85
Cc1c(O)cccc1C(=O)N[C@@H](CSc1ccccc1)[C@H](O)CN1C[C@H]2CCCC[C@H]2C[C@H]1C(=O)NC(C)(C)C :: 5.06

For every item below, please supply its -log10 GI50.
1. Cn1cnc2c(F)c(Nc3ccc(Br)cc3Cl)c(C(=O)NOCCO)cc21
2. CC(/C=C/C(=O)NO)=C\[C@@H](C)C(=O)c1ccc(N(C)C)cc1

[6.2, 5.2]

---

test system: SKBR3; experiment: -log10 GI50 (growth inhibition 50%) (-log10(M)); higher = more potent growth inhibition
Task for the reader: assign each of the following compounds its reported -log10 GI50.
Answers are plain numbers.

Example compounds with recorded -log10 GI50:
CC(=O)O[C@H]1C(=O)[C@@]2(C)[C@H]([C@H](OC(=O)c3ccccc3)[C@]3(O)C[C@H](OC(=O)[C@H](O)[C@@H](NC(=O)c4ccccc4)c4ccccc4)C(C)=C1C3(C)C)[C@]1(OC(C)=O)CO[C@@H]1C[C@@H]2O :: 7.94
COc1ccc(C2=N[C@@H](c3ccc(Cl)cc3)[C@@H](c3ccc(Cl)cc3)N2C(=O)N2CCNC(=O)C2)c(OC(C)C)c1 :: 4.33
COC(=O)Nc1nc2cc(C(=O)c3ccccc3)ccc2[nH]1 :: 6.49
O=C(/C=C/C#Cc1cccc(NS(=O)(=O)c2ccccc2)c1)NO :: 5.95
O=c1[nH]c(=O)n([C@H]2C[C@H](O)[C@@H](CO)O2)cc1F :: 3.66

Respectfully, I request -log10 GI50 for each entry included below.
1. O=C1C(Cl)=C(NCCN2CCOCC2)C(=O)c2ncccc21
2. O=C1c2ccccc2-[n+]2ccc3c([nH]c4ccccc43)c21

[5.86, 6.65]

---

tested on: UACC893; assay: -log10 GI50 (growth inhibition 50%) (-log10(M)); higher = more potent growth inhibition
Please go through the items and note down their -log10 GI50.
Numbers only.

Sample records with -log10 GI50:
CC/C(=C(\c1ccccc1)c1ccc(OCCN(C)C)cc1)c1ccccc1 :: 4.72
COc1cc2ncnc(Nc3ccc(F)c(Cl)c3)c2cc1OCCCN1CCOCC1 :: 5.94

Below are some molecules; for each one, tell me its -log10 GI50.
1. COc1cccc2c1C(=O)c1c(O)c3c(c(O)c1C2=O)C[C@@](O)(C(=O)CO)C[C@@H]3O[C@H]1C[C@H](N)[C@@H](O)[C@H](C)O1 [Epirubicin]
2. C=CCNC1=C2C[C@@H](C)C[C@H](OC)[C@H](O)[C@@H](C)/C=C(\C)[C@H](OC(N)=O)[C@@H](OC)/C=C\C=C(/C)C(=O)NC(=CC1=O)C2=O
3. C[C@@H](Oc1cc(-n2cnc3ccc(CN4CCN(C)CC4)cc32)sc1C(N)=O)c1ccccc1C(F)(F)F
4. CCc1c2c(nc3ccc(OC(=O)N4CCC(N5CCCCC5)CC4)cc13)-c1cc3c(c(=O)n1C2)COC(=O)[C@]3(O)CC

6.11
7.77
8.15
4.22

---

system: MDAMB175VII; test: -log10 GI50 (growth inhibition 50%) (-log10(M)); higher = more potent growth inhibition
property: -log10 GI50
One number for each entry.

Some solved entries appear below for comparison.
CO[C@H]1C[C@@H]2CC[C@@H](C)[C@@](O)(O2)C(=O)C(=O)N2CCCC[C@H]2C(=O)O[C@H]([C@H](C)C[C@@H]2CC[C@@H](OC(=O)C(C)(CO)CO)[C@H](OC)C2)CC(=O)[C@H](C)/C=C(\C)[C@@H](O)[C@@H](OC)C(=O)[C@H](C)C[C@H](C)/C=C/C=C/C=C/1C :: 4.66
C[C@@H](Oc1cc(-c2cnn(C3CCNCC3)c2)cnc1N)c1c(Cl)ccc(F)c1Cl :: 5.23
CC(=O)NCC(=O)N1[C@@H]2CC[C@H]1c1ccc(Nc3ncc(C(F)(F)F)c(NC4CCC4)n3)cc12 :: 5.63
CN(C)C/C=C/C(=O)Nc1cc2c(Nc3ccc(F)c(Cl)c3)ncnc2cc1O[C@H]1CCOC1 :: 8.35

In the following, a different compound is considered.
Hello, I am looking for reported -log10 GI50 with MDAMB175VII for "C[C@]12O[C@H](C[C@]1(O)CO)n1c3ccccc3c3c4c(c5c6ccccc6n2c5c31)CNC4=O" . Could you help?
6.09

---

tested on: UACC812; assay: -log10 GI50 (growth inhibition 50%) (-log10(M)); higher = more potent growth inhibition
property: -log10 GI50

COc1cccc2c1C(=O)c1c(O)c3c(c(O)c1C2=O)C[C@@](O)(C(=O)CO)C[C@@H]3O[C@H]1C[C@H](N)[C@H](O)[C@H](C)O1 :: 7.12
CCCCCN(C)CCC(O)(P(=O)(O)O)P(=O)(O)O [Ibandronate sodium] :: 3.83
O=C(CCCCCCC(=O)Nc1ccccc1)NO :: 4.37

What value of measured -log10 GI50 is listed for "O=C(O)C1(C(=O)O)CCC1.[NH2-].[NH2-].[Pt+2]" ?
4.76

---

For each record, write down the corresponding -log10 GI50.
tested on: T4; test: -log10 GI50 (growth inhibition 50%) (-log10(M)); higher = more potent growth inhibition
One number for each entry.

In the examples that follow, each entry is paired with its recorded -log10 GI50.
N.N.[Cl][Pt][Cl] [Cisplatin] :: 5.02
CC(C)Oc1ccc(C(=O)N[C@H](CNC(=O)CN(C)C)Cc2ccc(-c3cn4cccc([C@H](C)O)c4n3)cc2)cc1Cl :: 7.2
CCc1c2c(nc3ccc(OC(=O)N4CCC(N5CCCCC5)CC4)cc13)-c1cc3c(c(=O)n1C2)COC(=O)[C@]3(O)CC [CPT-11] :: 5.23
CCn1cc(-c2ccnc3[nH]c(-c4cccc(CN(C)C)c4)cc23)c(-c2ccc(NC(=O)N(C)C)cc2)n1 :: 6.63

Record -log10 GI50 per entry; entries follow.
1. CC(=O)Nc1cccc(-n2c(=O)n(C3CC3)c(=O)c3c(Nc4ccc(I)cc4F)n(C)c(=O)c(C)c32)c1
2. COc1cccc2c1C(=O)c1c(O)c3c(c(O)c1C2=O)C[C@@](O)(C(=O)CO)C[C@@H]3O[C@H]1C[C@H](N)[C@H](O)[C@H](C)O1 [Doxorubicin]
3. C[C@@H](Oc1cc(-n2cnc3ccc(CN4CCN(C)CC4)cc32)sc1C(N)=O)c1ccccc1C(F)(F)F
4. O=C(O)C1(C(=O)O)CCC1.[NH2-].[NH2-].[Pt+2] [Carboplatin]
5. CC(=O)O[C@H]1C(=O)[C@@]2(C)[C@H]([C@H](OC(=O)c3ccccc3)[C@]3(O)C[C@H](OC(=O)[C@H](O)[C@@H](NC(=O)c4ccccc4)c4ccccc4)C(C)=C1C3(C)C)[C@]1(OC(C)=O)CO[C@@H]1C[C@@H]2O [Paclitaxel]
6. O=C1NC(=O)/C(=C/c2ccc3nccc(-c4ccncc4)c3c2)S1

9
6.9
7.88
4.08
8.04
7.31

Hi there! I need -log10 GI50 for each item below, if you can.
1. O=C(O)C(=O)O.[NH-][C@@H]1CCCC[C@H]1[NH-].[Pt+2] [Oxaliplatin]
2. CC(=O)O[C@@]12CO[C@@H]1C[C@H](O)[C@@]1(C)C(=O)[C@H](O)C3=C(C)[C@@H](OC(=O)[C@H](O)[C@@H](NC(=O)OC(C)(C)C)c4ccccc4)C[C@@](O)([C@@H](OC(=O)c4ccccc4)[C@H]21)C3(C)C [Docetaxel]
3. CCNCCCNC/C=C\CNCCCNCC
4. COC1=C2C[C@@H](C)C[C@H](OC)[C@H](O)[C@@H](C)/C=C(\C)[C@H](OC(N)=O)[C@@H](OC)/C=C\C=C(/C)C(=O)NC(=CC1=O)C2=O [Geldanamycin]

1. 5.21
2. 8.77
3. 4.76
4. 8.22
